target: UniProt P22303; assay: Inhibition of AChE (unknown origin) by DTNB reagent based Ellman's method
Sequence (P22303 whole entry): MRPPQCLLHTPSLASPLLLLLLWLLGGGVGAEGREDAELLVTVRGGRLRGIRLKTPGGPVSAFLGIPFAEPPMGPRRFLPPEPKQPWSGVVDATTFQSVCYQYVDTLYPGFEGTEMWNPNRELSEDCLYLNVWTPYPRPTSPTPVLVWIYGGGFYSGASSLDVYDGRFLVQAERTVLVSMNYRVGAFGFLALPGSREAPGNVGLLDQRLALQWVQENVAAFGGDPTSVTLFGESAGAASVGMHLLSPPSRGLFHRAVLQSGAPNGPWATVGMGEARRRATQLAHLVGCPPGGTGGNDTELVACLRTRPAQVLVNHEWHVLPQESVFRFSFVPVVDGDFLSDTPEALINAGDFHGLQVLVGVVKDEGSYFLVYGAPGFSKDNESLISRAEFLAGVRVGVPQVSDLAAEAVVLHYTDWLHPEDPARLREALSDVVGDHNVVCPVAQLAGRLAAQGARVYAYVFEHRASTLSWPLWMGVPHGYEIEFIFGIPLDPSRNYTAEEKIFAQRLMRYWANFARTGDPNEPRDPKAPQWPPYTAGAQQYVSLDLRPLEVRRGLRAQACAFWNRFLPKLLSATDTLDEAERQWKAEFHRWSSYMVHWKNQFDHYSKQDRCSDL
Metric Name: pIC50
Reminder that pIC50 means the negative base-10 logarithm of the concentration expressed in mol/L.

Request: What value of measured pIC50 is listed for CCc1ccc(NC(=O)COc2c(Cl)cc(Cl)cc2S(=O)(=O)N2CCN(C(=O)c3ccco3)CC2)cc1 ?
Result: 5.26

---

molecular target: Cholinesterase (Homo sapiens, UniProt P06276); assay: Inhibition of BuChE in human serum using butyrylthiocholineiodide as substrate pre-incubated for 10 mins followed by substrate addition and measured for 6 mins by DTNB reagent based Ellman's method; type: cell-free
Sequence (P06276 whole entry): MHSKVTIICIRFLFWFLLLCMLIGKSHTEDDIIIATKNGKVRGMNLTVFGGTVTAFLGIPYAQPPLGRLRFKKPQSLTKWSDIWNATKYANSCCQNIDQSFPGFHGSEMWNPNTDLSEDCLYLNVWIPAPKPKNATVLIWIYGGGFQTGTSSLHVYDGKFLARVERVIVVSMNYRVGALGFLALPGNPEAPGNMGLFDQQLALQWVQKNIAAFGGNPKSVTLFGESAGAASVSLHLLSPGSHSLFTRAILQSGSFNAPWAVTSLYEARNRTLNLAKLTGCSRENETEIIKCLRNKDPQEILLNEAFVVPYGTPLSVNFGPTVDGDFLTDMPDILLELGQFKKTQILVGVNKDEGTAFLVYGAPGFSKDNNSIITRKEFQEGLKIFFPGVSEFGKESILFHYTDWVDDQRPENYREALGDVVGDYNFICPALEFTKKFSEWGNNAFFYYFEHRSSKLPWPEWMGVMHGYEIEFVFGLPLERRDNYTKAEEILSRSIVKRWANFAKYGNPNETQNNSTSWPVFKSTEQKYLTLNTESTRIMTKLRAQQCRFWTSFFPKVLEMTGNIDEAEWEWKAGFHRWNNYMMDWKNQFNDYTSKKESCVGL
Here the recorded IC50 is given for each entry.

Smiles Input	IC50
CCOC(=O)c1c(C)nc(N2CCN(S(=O)(=O)c3ccc(N)c(OC)c3)CC2)nc1-c1ccc(OC)c(OC)c1	> 200 nM

Request: What value of measured IC50 is listed for CCOC(=O)c1c(C)nc(N2CCN(S(=O)(=O)c3ccc(NC(C)=O)c(OC)c3)CC2)nc1-c1ccccc1 ?
Result: 184 nM

Request: What value of measured IC50 is listed for CCOC(=O)c1c(C)nc(N2CCN(S(=O)(=O)c3ccc(N)cc3)CC2)nc1-c1ccc(OC)c(OC)c1 ?
Result: > 200 nM

Request: What value of measured IC50 is listed for CCOC(=O)c1c(C)nc(N2CCN(S(=O)(=O)c3ccc(NC(C)=O)cc3)CC2)nc1-c1ccc(OC)cc1 ?
Result: > 200 nM
